This collection of values is drawn from ChEMBL document CHEMBL5154827.

PROTOCOL_DETAILS: Elimination half life in Sprague-Dawley rat at 0.5 micromol/mL/kg, iv measured for 3 to 360 mins by LC-MS/MS analysis
Type: ADME, organism-based
CONDITIONS_USED: in vivo, time 3-360 min, dose 0.5 µmol/kg, read-out: LambdaZ (converted)
Listing: half-life of selected compounds
READOUT_LABEL: half-life (h)

item_smiles=CNC(=O)Cn1c(=O)[nH]/c(=N\c2ccc(OC(F)F)cc2C)n(Cc2cc(F)c(F)c(F)c2)c1=O experimental_value=2.1
item_smiles=CNC(=O)Cn1c(=O)[nH]/c(=N\c2cc3cn(C)nc3cc2Cl)n(Cc2cc(F)c(F)c(F)c2)c1=O experimental_value=1.3
